Reference for the values: ChEMBL document CHEMBL1133818

MEASURED ON: RAF proto-oncogene serine/threonine-protein kinase (Homo sapiens, UniProt P04049)
Sequence (P04049 whole entry): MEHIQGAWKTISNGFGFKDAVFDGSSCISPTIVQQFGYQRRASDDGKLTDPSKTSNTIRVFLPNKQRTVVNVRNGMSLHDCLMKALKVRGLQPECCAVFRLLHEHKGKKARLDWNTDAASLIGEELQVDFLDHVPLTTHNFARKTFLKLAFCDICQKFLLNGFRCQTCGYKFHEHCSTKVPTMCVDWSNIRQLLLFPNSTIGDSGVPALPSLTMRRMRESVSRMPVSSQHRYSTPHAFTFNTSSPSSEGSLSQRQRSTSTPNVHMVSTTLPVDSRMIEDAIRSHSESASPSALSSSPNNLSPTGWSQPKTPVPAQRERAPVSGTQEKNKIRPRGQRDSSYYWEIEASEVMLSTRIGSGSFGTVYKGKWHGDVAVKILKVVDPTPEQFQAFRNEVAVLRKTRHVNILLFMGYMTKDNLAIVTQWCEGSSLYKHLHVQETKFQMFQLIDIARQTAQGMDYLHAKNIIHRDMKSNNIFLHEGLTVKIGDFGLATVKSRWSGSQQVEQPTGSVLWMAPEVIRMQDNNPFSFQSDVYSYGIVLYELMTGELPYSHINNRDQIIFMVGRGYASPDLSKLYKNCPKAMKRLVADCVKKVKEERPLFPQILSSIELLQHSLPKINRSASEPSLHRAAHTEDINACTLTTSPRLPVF
ASSAY METHOD TEXT: Inhibitory activity against raf kinase at 25 uM concentration.
VALUE KIND: inhibition (%)

// solved cases for inhibition follow
smiles=Cc1ccc(NC(=O)Nc2nc(C(C)(C)C)cs2)cc1 measured_on="RAF proto-oncogene serine/threonine-protein kinase (Homo sapiens, UniProt P04049)" quantitative_readout=25
smiles=COC(=O)c1sc(C(C)(C)C)cc1NC(=O)Nc1nnc(-c2ccccc2)s1 measured_on="RAF proto-oncogene serine/threonine-protein kinase (Homo sapiens, UniProt P04049)" quantitative_readout=14
smiles=COC(=O)c1sc(C(C)(C)C)cc1NC(=O)Nc1ncc(C)s1 measured_on="RAF proto-oncogene serine/threonine-protein kinase (Homo sapiens, UniProt P04049)" quantitative_readout=38
smiles=Cc1ccc(NC(=O)Nc2cc(C(C)(C)C)nn2C)cc1 measured_on="RAF proto-oncogene serine/threonine-protein kinase (Homo sapiens, UniProt P04049)" quantitative_readout=26
smiles=COC(=O)c1[nH]c(C(C)(C)C)cc1NC(=O)Nc1ccccc1 measured_on="RAF proto-oncogene serine/threonine-protein kinase (Homo sapiens, UniProt P04049)" quantitative_readout=43
smiles=COC(=O)c1sc(C(C)(C)C)cc1NC(=O)Nc1ccn(-c2ccccc2)n1 measured_on="RAF proto-oncogene serine/threonine-protein kinase (Homo sapiens, UniProt P04049)" quantitative_readout=31
smiles=COC(=O)c1sc(C(C)(C)C)cc1NC(=O)Nc1ccc(C(N)=O)cc1 measured_on="RAF proto-oncogene serine/threonine-protein kinase (Homo sapiens, UniProt P04049)" quantitative_readout=22
smiles=COC(=O)c1oc(C(C)(C)C)nc1NC(=O)Nc1ccc(C)cc1 measured_on="RAF proto-oncogene serine/threonine-protein kinase (Homo sapiens, UniProt P04049)" quantitative_readout=16
smiles=COC(=O)c1sc(C(C)(C)C)cc1NC(=O)Nc1n[nH]c(SC)n1 measured_on="RAF proto-oncogene serine/threonine-protein kinase (Homo sapiens, UniProt P04049)" quantitative_readout=8
smiles=COC(=O)c1sc(C(C)(C)C)cc1NC(=O)Nc1ccc(C(=O)O)cc1 measured_on="RAF proto-oncogene serine/threonine-protein kinase (Homo sapiens, UniProt P04049)" quantitative_readout=9

1. COC(=O)c1sc(C(C)(C)C)cc1NC(=O)Nc1cc(C)no1
2. COC(=O)c1sc(C(C)(C)C)cc1NC(=O)Nc1ccc(C)o1
3. CC(=O)NCc1sc(C(C)(C)C)cc1NC(=O)Nc1ccc(C)cc1
4. CCc1ccc(NC(=O)Nc2cc(C(C)(C)C)sc2C(=O)OC)cc1
5. COC(=O)c1sc(C(C)(C)C)cc1NC(=O)Nc1ccc(OC)cc1
Task: Please give the order of these compounds when sorted by inhibition, largest value leading. Respond with an ordered listing of the labels, as requested.
Output: 4, 1, 2, 5, 3
